# PROTOCOL_SUMMARY: Solubility of Melperone HCl in various media
# Assay type: physicochemical
# ASSAY_CONTEXT: ethanol, organic solvent or mixture
QUANTITY_KIND: solubility (mg/mL)
Give the quantity in mg/mL, number only.

Given the compound CC1CCN(CCCC(=O)c2ccc(F)cc2)CC1.Cl [Melperone HCl] , what is its reported solubility? 88.5

----------
# PROTOCOL_SUMMARY: Solubility of Melperone HCl in various media
# Assay type: physicochemical
# ASSAY_CONTEXT: phosphate buffer, aqueous buffer; pH 6.8 (phosphate)
QUANTITY_KIND: solubility (mg/mL)
Give the quantity in mg/mL, number only.

Given the compound CC1CCN(CCCC(=O)c2ccc(F)cc2)CC1.Cl [Melperone HCl] , what is its reported solubility? 800

----------
# PROTOCOL_SUMMARY: Solubility of Melperone HCl in various media
# Format: physicochemical
# ASSAY_CONTEXT: phosphate buffer, aqueous buffer; pH 4.5 (phosphate)
QUANTITY_KIND: solubility (mg/mL)
Give the quantity in mg/mL, number only.

Given the compound CC1CCN(CCCC(=O)c2ccc(F)cc2)CC1.Cl [Melperone HCl] , what is its reported solubility? 800

----------
# PROTOCOL_SUMMARY: Solubility of Melperone HCl in various media
# Format: physicochemical
# ASSAY_CONTEXT: phosphate buffer, aqueous buffer; pH 7.5 (phosphate)
QUANTITY_KIND: solubility
The answer consists of two parts: a number and, after it, its unit.

Given the molecule CC1CCN(CCCC(=O)c2ccc(F)cc2)CC1.Cl [Melperone HCl] , what is its reported solubility? 25.6 mg/mL
